biological target: T1, human plasma kallikrein (human, UniProt P03952 20-390; P03952 391-638); experiment: ELISA, biotinylated pKal signal over streptavidin background
T1 construct: two disulfide-linked chains; NP_000883.2; also called pKal; hpKal
T1 sequence (P03952 20-390 limits assumed, chain 1 of 2): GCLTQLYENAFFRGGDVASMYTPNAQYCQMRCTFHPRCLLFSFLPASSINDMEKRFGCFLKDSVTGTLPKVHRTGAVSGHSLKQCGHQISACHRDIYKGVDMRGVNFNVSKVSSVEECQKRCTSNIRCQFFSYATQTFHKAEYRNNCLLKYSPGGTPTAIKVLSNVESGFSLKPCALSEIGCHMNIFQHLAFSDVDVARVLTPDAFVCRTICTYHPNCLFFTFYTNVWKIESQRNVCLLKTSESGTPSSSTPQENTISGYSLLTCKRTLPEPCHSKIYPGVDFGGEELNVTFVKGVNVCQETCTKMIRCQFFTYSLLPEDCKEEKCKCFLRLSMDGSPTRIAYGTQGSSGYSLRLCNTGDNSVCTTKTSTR
T1 sequence (P03952 391-638 limits assumed, chain 2 of 2): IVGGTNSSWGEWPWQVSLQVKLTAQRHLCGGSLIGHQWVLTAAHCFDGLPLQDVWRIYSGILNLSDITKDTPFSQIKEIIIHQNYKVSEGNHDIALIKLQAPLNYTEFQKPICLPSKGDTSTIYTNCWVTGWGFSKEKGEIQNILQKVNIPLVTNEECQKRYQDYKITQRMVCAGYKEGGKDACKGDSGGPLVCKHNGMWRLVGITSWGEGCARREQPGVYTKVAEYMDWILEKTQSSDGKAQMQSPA
Can you tell me ELISA (T/B) for the items I'm about to list?
Answers are plain numbers.

- BINDER: "M8-G09 (Fab, V domains shown) VH: EVQLLESGGGLVQPGGSLRLSCAASGFTFSLYEMLWVRQAPGKGLEWVSVIYPSGGYTDYADSVKGRFTISRDNSKNTLYLQMNSLRAEDMAVYYCARSFSGFGEIDYWGQGTLVTVSS VL: DIQMTQSPSSLSASVGDTVTITCRASQGVSYYLAWFQQKPGKAPKSLIYGASSLQSGVPSKFSGSGSGTVFTLTISSLQPDDFATYYCQQYNTYPPTFGQGTRLDIK"
  ELISA (T/B): 28.2
- BINDER: "M12-C09 (Fab, V domains shown) VH: EVQLLESGGGLVQPGGSLRLSCAASGFTFSSYAMVWVRQAPGKGLEWVSSIGSSGGFTLYADSVKGRFTISRDNSKNTLYLQMNSLRAEDTAVYYCASMNLGGGDAFDIWGQGTMVTVSS VL: DIQMTQSPSSLSASVGDRVTITCRASQSIGIYLNWYHQKPGKAPNLLIYGASSLQSGVPSRFSGSGSGTDFTLTISSLQPGDFATYYCQHSYSTPFTFGGGTKVEIK"
  ELISA (T/B): 7
- BINDER: "M12-E06 (Fab, V domains shown) VH: EVQLLESGGGLVQPGGSLRLSCAASGFTFSQYKMLWVRQAPGKGLEWVSGIGPSGGLTAYADSVKGRFTISRDNSKNTLYLQMNSLRAEDTAVYYCARAPWFGELGMDVWGQGTTVTVSS VL: DIQMTQSPSSLSASVGDRVSITCRASQSISTYLNWYQHKPGKAPTLLIYGAFSLQSGVPSRFSGSGSGTDFALTISSLQPEDFATYYCQQSHSTPPTFGQGTRVEIK"
  ELISA (T/B): 48
- BINDER: "M27-G04 (Fab, V domains shown) VH: EVQLLESGGGLVQPGGSLRLSCAASGFTFSAYYMVWVRQAPGKGLEWVSYISPSGGQTQYADSVKGRFTISRDNSKNTLYLQMNSLRAEDTAVYYCAREAISSSSFDYWGQGTLVTVSS VL: DIQMTQSPSSLSASVGDRVTITCRASQRISYYLTWYQQKPGKVPKLLIYAASSLESGVPSRFSGSGSGTDFTLTISNLQPEDFATYYCQQAFSTPFTFGGGTKVEIK"
  ELISA (T/B): 4.1
- BINDER: "M8-D05 (Fab, V domains shown) VH: EVQLLESGGGLVQPGGSLRLSCAASGFTFSLYNMNWVRQAPGKGLEWVSSISPSGGFTDYADSVKGRFTISRDNSKNTLYLQMNSLRAEDTAVYYCARDLDLGILDYWGQGTLVTVSS VL: DIQMTQSPSFVSASVGDRVTITCRASQDISSWLVWYQQKPGKGPKLLIYDASNLQSGVPSRFSGGGSGTHFTLTISSLQPEDFATYYCQQADGFPLTFGGGTKVEMK"
  ELISA (T/B): 11.9

# map each binder to its ELISA (T/B)
1. M28-D12 (Fab, V domains shown) VH: EVQLLESGGGLVQPGGSLRLSCAASGFTFSWYTMHWVRQAPGKGLEWVSVIYPSGGPTSYADSVKGRFTISRDNSKNTLYLQMNSLRAEDTATYYCARDGSGSYLGFDYWGQGTLVTVSS VL: DIQMTQSPSSLSASVGDRVTITCRASQSIATYLNWYQQKPGRAPKLLIYAASSLQSGVPSRFVGGGSGSGTHFTLTISSLQPEDFATYYCQQSYSTRETFGQGTKVEIK
2. M9-C10 (Fab, V domains shown) VH: EVQLLESGGGLVQPGGSLRLSCAASGFTFSLYPMQWVRQAPGKGLEWVSSIGSSGGMTFYADSVKGRFTISRDNSKNTLYLQMNSLRAEDTAVYYCTREVGAAGFAFDIWGQGTMVTVSS VL: DIQMTQSPSSLSASVGDRVTITCRASQGISSYLNWYQQKPGNAPNLLIYGASSLQSGVPSRFSGSGSGTDFTLTISSLQPEDFATYYCQESYSTLFTFGPGTTVEIK

[41.6, 7.8]

Reference for the values: patent US20260176378A1
